Molecular target: URAT1 (Homo sapiens (Human))
Test: Uptake of [14C] uric acid using HEK-URAT1
Type: cell-based
Conditions: 2 min; [14C] uric acid uptake into URAT1 stably expressed HEK293 cells, 10 μM test compound, 5 μM uric acid, 2 minutes, 37° C.; uptake without test compound = 100%; read-out: % control (10 μM)
Decision: remaining activity at 10 µM beneath 20% gives Y; remaining activity at 10 µM meeting or exceeding 20% gives N.

compound | target | label.value
Cc1nc2ccc(SC(C)(C)C(=O)O)c(-c3ccc(C#N)cc3)c2s1 [Example 62] | URAT1 (Homo sapiens (Human)) | N
CC(C)(Oc1ccc2ncsc2c1-c1ccc(C#N)cc1)C(=O)O [Example 19] | URAT1 (Homo sapiens (Human)) | Y
CC(C)(Sc1ccc2ncsc2c1-c1ccc(OC(F)(F)F)cc1)C(=O)O [Example 64] | URAT1 (Homo sapiens (Human)) | N
CC(C)(Sc1ccc2ncccc2c1-c1ccc(C#N)cc1)C(=O)O [Example 15] | URAT1 (Homo sapiens (Human)) | N
N#Cc1ccc(-c2c(O/C=C\C(=O)O)ccc3ccccc23)cc1 [Example 7] | URAT1 (Homo sapiens (Human)) | N
CC(C)(Oc1ccc2ncoc2c1-c1ccc(C#N)cc1)C(=O)O [Example 17] | URAT1 (Homo sapiens (Human)) | N
CC(C)(Sc1ccc2cnsc2c1-c1ccc(C(F)(F)F)cc1)C(=O)O [Example 78] | URAT1 (Homo sapiens (Human)) | Y
N#Cc1ccc(-c2c(SC3(C(=O)O)CCCC3)ccc3cnsc23)cc1 [Example 68] | URAT1 (Homo sapiens (Human)) | Y
N#Cc1ccc(-c2c(SC3(C(=O)O)CCCCC3)ccc3cnsc23)cc1 [Example 117] | URAT1 (Homo sapiens (Human)) | Y

----------
Target: URAT1 (Homo sapiens (Human), UniProt Q96S37)
Sequence (Q96S37 whole entry): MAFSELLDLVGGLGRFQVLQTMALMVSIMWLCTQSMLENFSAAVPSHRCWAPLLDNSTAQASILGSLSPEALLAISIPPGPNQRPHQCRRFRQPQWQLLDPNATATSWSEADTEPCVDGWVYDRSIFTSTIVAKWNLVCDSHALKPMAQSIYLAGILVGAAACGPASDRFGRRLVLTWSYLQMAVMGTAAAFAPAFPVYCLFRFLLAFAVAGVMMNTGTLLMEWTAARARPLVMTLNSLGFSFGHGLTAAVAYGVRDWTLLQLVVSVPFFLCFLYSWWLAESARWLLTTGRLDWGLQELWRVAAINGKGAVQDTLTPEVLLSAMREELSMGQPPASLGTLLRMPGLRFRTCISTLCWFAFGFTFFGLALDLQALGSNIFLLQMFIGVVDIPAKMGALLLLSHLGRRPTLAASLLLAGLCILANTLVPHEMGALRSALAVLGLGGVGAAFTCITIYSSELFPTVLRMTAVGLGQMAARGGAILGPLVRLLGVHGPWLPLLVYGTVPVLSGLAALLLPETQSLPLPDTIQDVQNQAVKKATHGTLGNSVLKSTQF
Experiment: Uptake of [14C] uric acid using HEK-URAT1
Settings: inhibition of [14C] uric acid uptake into URAT1 stably expressed HEK293 cells
Decision: IC50 beneath 200 nM gives yes (1); IC50 meeting or exceeding 200 nM gives no (0).

given.smiles | label.value
CC(C)(Sc1c(-c2ccc(C#N)cc2)cnc2ccccc12)C(=O)O | no (0)
CCC(CC)(Sc1ccc2cnsc2c1-c1ccc(C#N)cc1)C(=O)O | yes (1)
CC(C)(Sc1ccc2cnsc2c1-c1ccc(C(F)(F)F)cc1)C(=O)O | yes (1)
N#Cc1ccc(-c2c(SC3(C(=O)O)CCCC3)ccc3cnsc23)cc1 | yes (1)
CC(C)(Sc1ccc2cnsc2c1-c1ccc(C#N)c(F)c1)C(=O)O | yes (1)
CC(C)(Sc1ccc2cnsc2c1-c1ccc([N+](=O)[O-])cc1)C(=O)O | yes (1)
CC(C)(Sc1ccc2ccccc2c1-c1ccc(C#N)c2ccccc12)C(=O)O | no (0)
